System: SK-MEL-28 melanoma
Test: NCI-60 one-dose screen, 48 h (100 = growth as untreated, 0 = no growth, -100 = all killed)
Conditions: 10 µM unless noted
This is part of a sample that, as a whole, favours compounds with a hit. Of some 83,000 tested, about 20% had one in any assay.
VALUE TYPE: growth (%)
Give the number; % is assumed, so skip it.

| MOLECULE | growth [%] |
| --- | --- |
| CNC1=C(Br)C(=O)c2c(C(=O)OC)c(C)nc(C)c2C1=O | 91.3 |
| Cc1c(Cl)cccc1NC(=O)c1sc2nc3c(cc2c1N)CCCC3 | 68.6 |
| C=C(C)[C@@H]1CCC[C@]2(C(=O)OC)CC[C@]3(C)[C@@H](CC[C@@H]4[C@@]5(C)CCCNC(C)(C)[C@@H]5CC[C@]43C)[C@@H]12 | 94.3 |

// below: growth requested for another molecule
// query Look up growth with SK-MEL-28 melanoma for this molecule: `O=c1cc(-c2nccc3c2[nH]c2ccccc23)c2cc(Cl)ccc2o1`
// result 64.6
